- System: NCI-H522 lung
- experiment: NCI-60 one-dose screen, 48 h
- test conditions: 10 µM
This is part of a sample that, as a whole, favours compounds with a hit. Of some 83,000 tested, about 20% had one in any assay. Activity calls are given as the source filed them. The calls were made as follows: active = growth percent below 10; inactive = the rest.
Labels: active, inactive

• CCN(CC)c1ccc(/C=C/C(=O)c2cccc(NS(C)(=O)=O)c2)cc1 = active
• NS(=O)(=O)N(c1cc(C(F)(F)F)cc(C(F)(F)F)c1)C1CCN(Cc2ccc(C(F)(F)F)cc2)CC1 = active
• CC(=O)Nc1ccc(C(=O)COc2ccc(/C=C3\CCc4ccccc4C3=O)cc2)cc1 = inactive
• Cc1ccc(S(=O)(=O)N2CCN(C(=O)CSc3nc4ccc(C)cc4[nH]3)CC2)cc1 = inactive
• COCCCNS(=O)(=O)c1ncnc2nc[nH]c12 = inactive

---

- Tested on: MDA-MB-435 melanoma
- experiment: NCI-60 one-dose screen, 48 h
- test conditions: 10 µM unless noted
About 83,000 compounds went through this panel and 20% of them were active in at least one assay; those are over-represented in the sample as a whole. The source made the active and inactive calls. How the source made its calls: active means growth percent below 10; inactive means the rest.
Labels: active, inactive

* COCCOCCOCCOCCOc1ccc2c(c1)C(=O)c1nc3ncccc3c(=O)n1-2 | active
* Oc1c(N=Nc2nn[nH]n2)ccc2ccccc12 | inactive
* O=CN1N=C(c2ccc(Nc3ccnc4cc(Cl)ccc34)cc2)CC1c1ccc(Cl)cc1 (stereo unspecified) | active
* O=C(CNC(=O)c1cccc2ccccc12)Nc1ccccc1Cc1ccccc1 | active
* c1ccc(-c2n(Cc3ccc4ccccc4c3)cc[n+]2Cc2ccc3ccccc3c2)cc1 | active
* COc1cnc2c(c1)C(=O)c1c-2n(CCCNC(C)C)c(=O)c2cc(F)ccc12 | active

---

Below: a set of entries, each annotated with reported growth.
- System: NCI/ADR-RES ovarian
- experiment: NCI-60 one-dose screen, 48 h (100 = growth as untreated, 0 = no growth, -100 = all killed)
- test conditions: 10 µM unless noted
The panel holds about 83,000 compounds, 20% with a hit somewhere; the sample as a whole holds those more often.
observed property: growth (%)

• Cc1[nH]cnc1/C=C1\SC(N2CCCCC2)=NC1=O = 106
• CCCCOP(=O)(OCCCC)C(C(=O)OCC)C(CC(=O)OCC)C(=O)OCC (stereo not given) = 113
• Cc1ccc2nc(-c3ccc(N(C)C)c(Br)c3)cn2c1 = 78.2
• Nc1nc(Nc2ccccc2SSc2ccccc2Nc2nc(N)nc(C(Cl)(Cl)Cl)n2)nc(C(Cl)(Cl)Cl)n1 = 48.9
• COc1ccc(C2=NN(C(N)=S)C(c3ccc4c(c3)OCO4)C2)cc1 (stereo not given) = 5.5
• O=c1ccn(C2CC=C(CO)O2)c(=O)[nH]1 (stereo not given) = 116
• Cc1cc2c(cc1C)[n+](Cc1ccc3ccccc3n1)cn2Cc1ccc2ccccc2n1 = 96.4
• Nc1nc2c(nnn2Cc2ccc(Cl)c(Cl)c2)c(=O)[nH]1 = 105
• c1ccc(N2c3nc4ccccc4cc3Sc3cc4ccccc4nc32)nc1 = 82.7
• O=C(Nc1cccc(-n2cc(-c3ccncc3)c(-c3cc(O)cc(Cl)c3)n2)c1)Nc1ccc(Cl)c(Cl)c1 = 12.8
• Oc1c(Cl)cc(Cl)c(Cl)c1Cc1c(O)c(Cl)cc(Cl)c1Cl = 3.82
• Cc1ccc(C2=Nc3c(ccc4c(C)c(C)c(=O)oc34)OC2)cc1 = 97.3
• c1ccc2nc(Cn3c[n+](Cc4ccc5ccccc5n4)c4ccccc43)ccc2c1 = 102
• O=C(COc1ccc(/C=C2\Oc3ccc4ccccc4c3C2=O)cc1)c1ccc(Cl)cc1 = 107
• O=c1[nH]cc(Nc2cc(Cl)c3nonc3c2[N+](=O)[O-])c(=O)[nH]1 = 96
• COc1cc(/C=C/C(=O)C(C(=O)/C=C/c2ccc(OC(=O)CCNC34CC5CC(CC(C5)C3)C4)c(OC)c2)C(=O)CCNC23CC4CC(CC(C4)C2)C3)ccc1OC(=O)CCNC12CC3CC(CC(C3)C1)C2 (stereo not given) = 41.7
• c1ccc(-c2oc(-c3ccccc3)c3ccccc23)cc1 = 96.5
• C(=C1c2ccccc2-c2ccccc21)c1ccccn1 = 31.1
• CN1CCN(CCCCCN=c2cc3c(=O)n(CCCCCN4CCN(C)CC4)c(=O)c4c(NCCCCCN5CCN(C)CC5)cc5c(O)n(CCCCCN6CCN(C)CC6)c(=O)c2c5c4-3)CC1 = 110
• O=C(O)CCNS(=O)(=O)c1ccc(-c2ccccc2)cc1 = 108
